Biological target: 5-HT1A receptors (Rattus norvegicus)
Assay: Flat body posture (FBP), agonist response and antagonism of 8-OH-DPAT
Type: in vivo, male Wistar rats
Design: from tissue; host or cells: whole animal, male Wistar rat (in vivo)
Details: sc, 1 h, read-out: Flat body posture ED50 (95% C.L.), antagonism of 8-OH-DPAT, inhibition of FBP, 8-OH-DPAT 0.16 mg/kg s.c., compound s.c. 60 min before test
QUANTITY NAME: ED50 (mg/kg)
Give just the number in mg/kg; leave the unit off.

COMPOUND | STUDY TARGET | UNIT ABBREVIATION | ED50
c1ccc2c(c1)CC2CN1CCN(c2cccc3c2OCCO3)CC1 (racemic) | 5-HT1A receptors (Rattus norvegicus) | mg/kg | 0.71
c1ccc2c(c1)CCC2CCCN1CCN(c2cccc3c2OCCO3)CC1 (racemic) | 5-HT1A receptors (Rattus norvegicus) | mg/kg | 0.29
c1ccc2c(c1)CC2CCN1CCN(c2cccc3c2OCCO3)CC1 (racemic) | 5-HT1A receptors (Rattus norvegicus) | mg/kg | 0.76
c1ccc2c(c1)CC2CCCN1CCN(c2cccc3c2OCCO3)CC1 (racemic) | 5-HT1A receptors (Rattus norvegicus) | mg/kg | 0.57
c1ccc2c(c1)CC2CCN1CCN(c2cccc3c2OCCCO3)CC1 (racemic) | 5-HT1A receptors (Rattus norvegicus) | mg/kg | 1.55

Prompt: Recorded ED50 of `c1ccc2c(c1)CC(N1CCN(c3cccc4c3OCCO4)CC1)C2` , please.
Completion: 0.52

Prompt: Follow-up entry: c1ccc2c(c1)CCC2CCN1CCN(c2cccc3c2OCCO3)CC1 (racemic)
Completion: 1.03

---

Attribute: Hypothermia M.E.D.
Molecular target: 5-HT1A receptors (Rattus norvegicus, UniProt P19327)
Sequence (P19327 whole entry): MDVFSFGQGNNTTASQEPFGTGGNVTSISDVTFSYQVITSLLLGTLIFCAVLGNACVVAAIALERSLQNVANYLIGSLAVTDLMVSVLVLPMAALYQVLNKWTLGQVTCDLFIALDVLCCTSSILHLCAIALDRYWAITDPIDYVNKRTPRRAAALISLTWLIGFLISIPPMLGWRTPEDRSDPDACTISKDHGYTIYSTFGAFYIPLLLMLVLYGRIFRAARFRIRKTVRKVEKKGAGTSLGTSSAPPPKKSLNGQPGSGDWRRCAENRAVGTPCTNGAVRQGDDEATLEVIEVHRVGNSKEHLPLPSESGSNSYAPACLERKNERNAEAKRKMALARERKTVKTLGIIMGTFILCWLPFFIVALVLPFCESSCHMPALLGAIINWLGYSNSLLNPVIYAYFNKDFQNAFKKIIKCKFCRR
Assay: Body temperature (hypothermia), agonist and antagonist activity
Format: in vivo, male Wistar rats
Design: from tissue; host or cells: whole animal, male Wistar rat (in vivo)
Details: agonist: induction of hypothermia; s.c.; minimum effective dose
Give the value, in units of mg/kg, as a plain number.

Prompt: Look at this compound and give its reported Hypothermia M.E.D.. c1ccc2c(c1)CCC2CN1CCN(c2cccc3c2OCCO3)CC1 (racemic) [Example 15]
Completion: 10.0

Prompt: Now try c1ccc2c(c1)CC(N1CCN(c3cccc4c3OCCCO4)CC1)C2 [Example 9] .
Completion: 5.0

Prompt: # repeat for c1ccc2c(c1)CC2CN1CCN(c2cccc3c2OCCO3)CC1 (racemic) [Example 1]
Completion: 10.0

Prompt: Param item: c1ccc2c(c1)CC2CCN1CCN(c2cccc3c2OCCO3)CC1 (racemic) [Example 2]
Completion: 40.0

---

Biological target: 5-HT1A receptors (Rattus norvegicus)
Assay: In vitro binding test, 5-HT1A receptors, [3]H-8-OH-DPAT, rat hippocampus membranes
Design: Hippocampus from the brains of decapitated rats; from tissue; host or cells: rat hippocampus membranes (male Wistar); species or system rat (male Wistar)
Below, each entry is listed alongside its reported Ki.
Supply the numeric figure in nM, leaving out any unit text.

COMPOUND | UNIT ABBREVIATION | Ki
c1ccc2c(c1)CC(CN1CCN(c3cccc4c3OCCO4)CC1)C2 | nM | 3.39
c1ccc2c(c1)CC2CCN1CCN(c2cccc3c2OCCO3)CC1 (racemic) | nM | 0.617
c1ccc2c(c1)CCC2CN1CCN(c2cccc3c2OCCO3)CC1 (racemic) | nM | 2
C1=C(CCN2CCN(c3cccc4c3OCCO4)CC2)c2ccccc2C1 | nM | 0.813
c1ccc2c(c1)CC2CN1CCN(c2cccc3c2OCCO3)CC1 (racemic) | nM | 1.82

Prompt: Name the reported Ki value associated with the compound c1ccc2c(c1)CC2CCCCN1CCN(c2cccc3c2OCCO3)CC1 (racemic)
Completion: 1.58
